- Read-out: serum amyloid A (SAA), SAA1 (gene 6288)
- Assay Info: BSK_CASM3C_SAA: BioMAP Diversity Plus: CASM3C Assay for serum amyloid A (SAA) Biomarker Activity (AID 2283049);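 note: SAA protein level quantified by ELISA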
- Assay Context: primary human coronary artery smooth muscle cells; actives raise or lower the signal
The source made the active and inactive calls. Rule for the calls: active = hit-call score of the fitted dose curve at least 0.9, where 1 is the maximum; inactive = score below 0.9.
Outcome codes: t for active, f for inactive

compound=COP(=S)(OC)Oc1ccc([N+](=O)[O-])c(C)c1 assigned_class=f
compound="CCNP(=S)(OC)O/C(C)=C/C(=O)OC(C)C (configuration not stated)" assigned_class=f
compound=O=C(O)c1c(Cl)ccc2cc(Cl)cnc12 assigned_class=f
compound=CSC(=O)c1c(C(F)F)nc(C(F)(F)F)c(C(=O)SC)c1CC(C)C assigned_class=f
compound=Clc1cccc(C(Cl)(Cl)Cl)n1 assigned_class=f
compound=CC(C)Oc1cccc(NC(=O)c2ccccc2C(F)(F)F)c1 assigned_class=f
compound=COc1cc(Cl)c(OC)cc1Cl assigned_class=f
compound=OC(c1ccc(Cl)cc1)(c1ccc(Cl)cc1)C(Cl)(Cl)Cl assigned_class=t
compound=Cc1ccc(N=CN(C)C=Nc2ccc(C)cc2C)c(C)c1 assigned_class=t
compound=CCOc1nc(F)cc2nc(S(=O)(=O)Nc3c(Cl)cccc3Cl)nn12 assigned_class=f
compound="CC1(C)CCC(=Cc2ccc(Cl)cc2)C1(O)Cn1cncn1 (configuration not stated)" assigned_class=f
compound=COC(=O)N(C(=O)N1CO[C@@]2(C(=O)OC)Cc3cc(Cl)ccc3C2=N1)c1ccc(OC(F)(F)F)cc1 assigned_class=f
compound=CC1(C)CON(Cc2ccccc2Cl)C1=O assigned_class=f
compound="Cc1cnc(C2=NC(C)(C(C)C)C(=O)N2)c(C(=O)O)c1 (configuration not stated)" assigned_class=f
compound=CCCCOCN(C(=O)CCl)c1c(CC)cccc1CC assigned_class=f
compound=Clc1nc(Cl)nc(Nc2ccccc2Cl)n1 assigned_class=f
compound="CCCN(CC)CC1COC2(CCC(C(C)(C)C)CC2)O1 (configuration not stated)" assigned_class=f
compound=CN=C=S assigned_class=f
compound="CCOc1cc(C(C)(C)C)ccc1C1COC(c2c(F)cccc2F)=N1 (configuration not stated)" assigned_class=f
compound=O=c1n(Cl)c(=O)n(Cl)c(=O)n1Cl assigned_class=f
compound=CC(C)N1C(=O)c2ccccc2NS1(=O)=O assigned_class=f
compound=COc1ccc(-c2ccccc2)cc1NNC(=O)OC(C)C assigned_class=f
